Test system: SK-OV-3
Assay: NCI tumour cell line growth inhibition, 48 h
Activity calls are given as the source filed them. Cut-off read from the data, not from the text of the source: active = GI50 up to about 1.1 µM and inactive = higher.
Classes used: active, inactive

[
  {
    "Compound": "N#CCCC(CC#N)N1CCN(CCO)CC1 (centres undefined)",
    "System Name": "SK-OV-3",
    "Answer Label": "inactive"
  },
  {
    "Compound": "COc1cccc2c1C(=O)c1c(O)c3c(c(O)c1C2=O)CC(O)(C(O)CO)CC3OC1CC(N2CCOCC2)C(O)C(C)O1 (centres undefined)",
    "System Name": "SK-OV-3",
    "Answer Label": "active"
  },
  {
    "Compound": "c1cc(-c2ccc(-c3ccc(C4=NCCCN4)cc3)o2)ccc1C1=NCCCN1",
    "System Name": "SK-OV-3",
    "Answer Label": "inactive"
  },
  {
    "Compound": "N#Cc1c(-c2ccccc2)c(/C=N/c2ccc(F)cc2)c(=O)n2c1[nH]c1ccccc12",
    "System Name": "SK-OV-3",
    "Answer Label": "inactive"
  },
  {
    "Compound": "CC[C@@]1(OP(=O)(O)O)C(=O)OCc2c1cc1n(c2=O)Cc2cc3ccccc3nc2-1",
    "System Name": "SK-OV-3",
    "Answer Label": "active"
  },
  {
    "Compound": "O=C(Nc1ccc(Cl)cc1Cl)/C(Cl)=C1/Sc2ccccc2NC1=O",
    "System Name": "SK-OV-3",
    "Answer Label": "inactive"
  },
  {
    "Compound": "N#CC(C#N)=C1/C(=C/C=C/C=C/C=C/c2ccc(N3CCCCC3)s2)S(=O)(=O)c2ccccc21",
    "System Name": "SK-OV-3",
    "Answer Label": "inactive"
  },
  {
    "Compound": "O=C1C([P+](c2ccccc2)(c2ccccc2)c2ccccc2)=C([O-])C(=Cc2ccc(Cl)c(Cl)c2)C([O-])=C1[P+](c1ccccc1)(c1ccccc1)c1ccccc1",
    "System Name": "SK-OV-3",
    "Answer Label": "inactive"
  },
  {
    "Compound": "O=C(CCc1ccc(O)cc1)NCCc1cccc(OCc2ccccc2)c1",
    "System Name": "SK-OV-3",
    "Answer Label": "inactive"
  },
  {
    "Compound": "C=C1C(=O)OC2/C=C(\\C)C(OC(C)=O)C3OC3C(C)(O)CC(OC(=O)/C(C)=C/C)C12 (centres undefined)",
    "System Name": "SK-OV-3",
    "Answer Label": "inactive"
  },
  {
    "Compound": "CC(C)N(C(=O)C12C3C4C5(C(=O)O)C(C1C35I)C42C(=O)O)C(C)C (centres undefined)",
    "System Name": "SK-OV-3",
    "Answer Label": "inactive"
  },
  {
    "Compound": "C#CCC1(C(=O)OCC)C(=O)c2ccccc2N(C)C1=O (centres undefined)",
    "System Name": "SK-OV-3",
    "Answer Label": "inactive"
  },
  {
    "Compound": "CCC1(OC(=O)CN2CCN(CCO)CC2)C(=O)OCc2c1cc1n(c2=O)Cc2cc3ccccc3nc2-1 (centres undefined)",
    "System Name": "SK-OV-3",
    "Answer Label": "inactive"
  },
  {
    "Compound": "Cc1cc(C)c2c(O)cc(-c3ccc(Cl)cc3)nc2n1",
    "System Name": "SK-OV-3",
    "Answer Label": "inactive"
  },
  {
    "Compound": "O=S(=O)(O)c1ccc(/N=N/c2ccc(/N=N/c3c(O)c(S(=O)(=O)O)cc4cc(S(=O)(=O)O)ccc34)cc2)cc1",
    "System Name": "SK-OV-3",
    "Answer Label": "inactive"
  },
  {
    "Compound": "Cc1ccc(SCC(OCn2cnc3c(Cl)nc(N)nc32)[C@H](C)F)cc1 (some centres undefined)",
    "System Name": "SK-OV-3",
    "Answer Label": "inactive"
  },
  {
    "Compound": "O=C(O)[C@@H](NS(=O)(=O)c1ccc(F)cc1)c1ccccc1",
    "System Name": "SK-OV-3",
    "Answer Label": "inactive"
  },
  {
    "Compound": "COc1cc(O)c(C(=O)/C=C/c2ccccc2)c(OC)c1",
    "System Name": "SK-OV-3",
    "Answer Label": "inactive"
  },
  {
    "Compound": "C[C@H](CCc1nc(C#N)c(N)o1)[C@H]1CC[C@H]2[C@@H]3CCC4C[C@@H](O)CC[C@]4(C)[C@H]3C[C@@H](O)[C@]12C (some centres undefined)",
    "System Name": "SK-OV-3",
    "Answer Label": "inactive"
  }
]

src = ChEMBL document CHEMBL1201862
